# Tested on: SK-MEL-2 melanoma
# EXPERIMENT: NCI tumour cell line growth inhibition, 48 h
QUANTITY NAME: TGI (µM)
// units = µM; emit number, no label

Sure, the documented TGI for N#CC(c1ccccc1)N(CCc1ccccc1)C(=O)c1ccc(C(=O)N(CCc2ccccc2)C(C#N)c2ccccc2)cc1 (stereo not drawn) is 48.1

Sure, the documented TGI for COc1ccc2nc3cc(Cl)ccc3c(NCCNCC(O)CO)c2c1 (stereo not drawn) is 6.97

Sure, the documented TGI for `COC1=CC(c2ccc[nH]2)=N/C1=C\c1[nH]c(C)c(C(=O)Oc2ccccc2)c1C` is 0.479

Sure, the documented TGI for Cc1c2oc3c(C)cnc(C(=O)NC4C(=O)NC(C(C)C)C(=O)N5CCCC5C(=O)N(C)CC(=O)N(C)C(C(C)C)C(=O)OC4C)c3nc-2c(C(=O)NC2C(=O)NC(C(C)C)C(=O)N3CCCC3C(=O)N(C)CC(=O)N(C)C(C(C)C)C(=O)OC2C)c(N)c1=O (stereo not drawn) is 10.4

Sure, the documented TGI for `Cn1cnc([N+](=O)[O-])c1Sc1nc2ccccc2o1` is 52.9

---

# Test system: DMS 273 small cell lung
# EXPERIMENT: NCI tumour cell line growth inhibition, 48 h
QUANTITY NAME: TGI

Measured on DMS 273 small cell lung, `O=C1C[C@@H]2[C@@H](CCC23CCCC3)N1` has a documented TGI of > 100 µM

Measured on DMS 273 small cell lung, `O=S1(=O)OCCOS(=O)(=O)C1(Cl)Cl` has a documented TGI of > 100 µM

Measured on DMS 273 small cell lung, `O=C(CSc1nnc(Cc2ccccc2)o1)Nc1ccc(Cl)cc1[N+](=O)[O-]` has a documented TGI of 33.9 µM

Measured on DMS 273 small cell lung, O=C(CN(Cc1ccccc1)Cc1ccccc1)N1CCc2c([nH]c3ccccc23)C1c1cccnc1 (stereo not drawn) has a documented TGI of 82.8 µM

Measured on DMS 273 small cell lung, `CN1C(=S)CSc2ccccc21` has a documented TGI of > 100 µM

Measured on DMS 273 small cell lung, `O=C1C(Cl)=C(Cl)C(=O)N1c1ccccc1Cl` has a documented TGI of > 100 µM

Measured on DMS 273 small cell lung, Cc1ccc(C(=O)C(c2nc3n(c2O)C(=N)N=N3)c2nc3n(c2O)C(=N)N=N3)cc1 (stereo not drawn) has a documented TGI of > 100 µM

Measured on DMS 273 small cell lung, `CC(C)COC(=O)c1ccc(N=Cc2ccc(C=Nc3ccc(C(=O)OCC(C)C)cc3)cc2)cc1` has a documented TGI of > 100 µM

Measured on DMS 273 small cell lung, `N.N.N.N.N.N#Cc1nn[n-]n1.[Cl-].[Co+3]` has a documented TGI of > 100 µM

Measured on DMS 273 small cell lung, O=C1N=CN=C2C=CC(Cl)=C(I)C12 (stereo not drawn) has a documented TGI of > 100 µM

Measured on DMS 273 small cell lung, `O=C(CCC(=O)Nc1ccc(Cl)cc1)CC(=O)c1ccc2ccccc2c1` has a documented TGI of > 100 µM

Measured on DMS 273 small cell lung, O=CC1CCC=CC1NC(=O)OCc1ccccc1 (stereo not drawn) has a documented TGI of > 100 µM

Measured on DMS 273 small cell lung, `Cc1ccc2nc(Sc3c([N+](=O)[O-])ncn3C)[nH]c2c1` has a documented TGI of 40.1 µM

---

# System: SN12C renal
# EXPERIMENT: NCI tumour cell line growth inhibition, 48 h
QUANTITY NAME: TGI

Measured on SN12C renal, `O=C(O)c1ccc(NCc2nc3ccccc3[nH]2)cc1` has a documented TGI of > 100 µM

Measured on SN12C renal, `N#Cc1sc2c(c1OC(=O)c1ccc(Cl)cc1)c(=O)n(-c1ccccc1)c(=S)n2-c1ccccc1` has a documented TGI of 54 µM

Measured on SN12C renal, N#CC(C#N)=Cc1ccc(C(O)P(=O)(O)O)cc1 (centres undefined) has a documented TGI of > 100 µM

Measured on SN12C renal, `CON=C1C[C@]2(C[C@@H]3C[C@@H](C/C=C(\C)C[C@@H](C)/C=C/C=C4\CO[C@@H]5[C@H](O)C(C)=C[C@@H](C(=O)O3)[C@]45O)O2)O[C@H](/C(C)=C/C(C)C)[C@H]1C` has a documented TGI of 28.3 µM

Measured on SN12C renal, `Cc1ccc(S(=O)(=O)OCC(=O)Nc2ccc(C(=O)O)c(O)c2)cc1` has a documented TGI of 105 µM

Measured on SN12C renal, CC(=O)OC1CC2C(C)(C)CCC[C@]2(C)C2=C1C(O)=C(C(C)C)C(=O)C2=O (some centres undefined) has a documented TGI of 7.58 µM

Measured on SN12C renal, `COc1ccc(N=N/C(=N\NC(=O)c2cc(Br)ccc2O)c2ccc(N(CCC#N)CCC#N)cc2OC)cc1` has a documented TGI of > 150 µg/mL

Measured on SN12C renal, `O=C(Nc1ccc(Oc2ccc(NC(=O)Nc3ccccc3Cl)cc2)cc1)Nc1ccccc1Cl` has a documented TGI of > 100 µM

Measured on SN12C renal, `Clc1ccc(-c2nc3c(-c4ccccc4)nc(-c4ccccc4)cn3c2-c2ccc(Cl)cc2)cc1` has a documented TGI of > 100 µM

Measured on SN12C renal, `Cc1ccc(/C=C(/C#N)n2nnc3ncccc32)cc1` has a documented TGI of 9.66 µM

Measured on SN12C renal, CC1OC(OC2C(OC(=O)[C@]34CCC(C)(C)CC3C3=CCC5[C@@]6(C)C[C@H](O)[C@H](OC7OC(COC8OC(CO)C(O)C(O)C8O)C(O)C(O)C7O)[C@@](C)(C(=O)O)C6CC[C@@]5(C)C3(C)CC4)OCC(O)C2O)C(O)C(O)C1OC1OCC(O)C(O)C1O (some centres undefined) has a documented TGI of > 100 µM

Measured on SN12C renal, CSCCC(NC(=O)Cc1ccc(C(=O)c2ccccc2)cc1)C(=O)N1CCN(CCCCN2c3ccccc3Sc3cc(N=[N+]=[N-])ccc32)CC1 (centres undefined) has a documented TGI of > 100 µM

Measured on SN12C renal, `NS(=O)(=O)c1ccc(N=Nc2c(O)[nH]c3ccc(C(=O)NCCc4cnc[nH]4)cc23)cc1` has a documented TGI of > 25 µM

Measured on SN12C renal, `COC(C)(C)[C@@H]1CCCN1C1=C(C)C(=O)OC1` has a documented TGI of > 100 µM

Measured on SN12C renal, `CCOC(=O)Nc1ccc2nc(N3CCCCCC3)sc2c1` has a documented TGI of > 100 µM

Measured on SN12C renal, `COc1ccc(OC)c(N=Cc2cc(OC)c(OC)c(OC)c2)c1` has a documented TGI of > 100 µM

Measured on SN12C renal, C/C=C(\C)c1cc(=O)c2c(C)cc3c(c2o1)C(OC)(OC(C)=O)c1c(O)c(C2CC(C)(N(C)C)C(OC(C)=O)C(C)O2)cc(C2CC(N(C)C)C(OC(C)=O)C(C)O2)c1C3=O (centres undefined) has a documented TGI of 5.23 µM

Measured on SN12C renal, N#CC(C(=O)CCC(=O)Nc1ccc(Cl)cc1)c1ccc(Cl)cc1 (centres undefined) has a documented TGI of > 100 µM

Measured on SN12C renal, CCc1cccc(C)c1N1C(=O)C(=O)C(c2nc3ccccc3o2)/C(=N/NC(=S)NN)C1=O (centres undefined) has a documented TGI of > 100 µM

Measured on SN12C renal, `COc1ccc(C(=O)N2CCN(c3ccc4c(c3)OCC(=O)N4)CC2)cc1OC` has a documented TGI of > 100 µM

Measured on SN12C renal, `CC(C)C(=O)Nc1ccc(-c2nc(-c3cccc(OCCN4CCOCC4)c3)c(-c3ccnc(Br)c3)[nH]2)cc1` has a documented TGI of > 100 µM

Measured on SN12C renal, `O=C(CN1CCN(CCN2C(=O)c3cccc4cccc(c34)C2=O)CC1)Nc1ccc2ncsc2c1` has a documented TGI of 19.9 µM

Measured on SN12C renal, `O=C(CCc1ccc(O)c(O)c1)NCCc1ccccc1` has a documented TGI of > 31.6 µM

Measured on SN12C renal, `C/C(=N\Nc1nc2ccccc2o1)c1ncccn1` has a documented TGI of 15.2 µM

Measured on SN12C renal, `Fc1ccc(Nc2ncc(-c3cc(F)c(Cl)cc3Cl)s2)cc1Cl` has a documented TGI of > 100 µM

Measured on SN12C renal, CC(=O)c1cc(CC2Cc3cc4c(cc3C2=O)CCC4)cc2c1CCC2 (centres undefined) has a documented TGI of > 100 µM

Measured on SN12C renal, `O=C(O)CCNc1ncc2c(n1)-c1ccccc1OC2` has a documented TGI of > 100 µM

Measured on SN12C renal, COc1ccc(C2CC(c3ccc(NS(=O)(=O)c4cc([N+](=O)[O-])ccc4C)cc3)=NN2S(=O)(=O)c2cc([N+](=O)[O-])ccc2C)cc1 (centres undefined) has a documented TGI of > 100 µM

Measured on SN12C renal, `O=C1C=CC(=O)c2c(O)c(NCCO)c(Cl)c(O)c21` has a documented TGI of > 5.55 µM
